target: RNA-directed RNA polymerase (Hepacivirus hominis); assay: Inhibition of HCV NS5B RNA dependent RNA polymerase
Sequence (O39930 whole entry): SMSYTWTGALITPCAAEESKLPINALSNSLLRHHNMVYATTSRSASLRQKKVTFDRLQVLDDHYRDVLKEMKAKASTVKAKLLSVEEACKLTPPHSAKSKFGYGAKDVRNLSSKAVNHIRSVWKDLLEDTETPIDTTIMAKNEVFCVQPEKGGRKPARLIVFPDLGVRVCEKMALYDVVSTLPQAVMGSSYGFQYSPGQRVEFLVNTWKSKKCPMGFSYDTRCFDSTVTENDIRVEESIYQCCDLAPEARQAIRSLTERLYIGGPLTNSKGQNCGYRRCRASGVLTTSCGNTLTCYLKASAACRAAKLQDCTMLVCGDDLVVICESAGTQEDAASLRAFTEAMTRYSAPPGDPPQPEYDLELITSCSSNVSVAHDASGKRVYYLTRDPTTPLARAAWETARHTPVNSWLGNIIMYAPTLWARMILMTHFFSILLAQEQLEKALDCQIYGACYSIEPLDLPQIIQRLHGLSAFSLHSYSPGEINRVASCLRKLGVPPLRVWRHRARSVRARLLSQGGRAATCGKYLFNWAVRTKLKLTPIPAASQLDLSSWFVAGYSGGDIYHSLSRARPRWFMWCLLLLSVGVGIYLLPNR
pIC50: −log10 of the molar value.
endpoint-name: pIC50

In [3]: df
Out[3]:
                              smiles_string  result
0  Cc1ccc(S(=O)(=O)Nc2cc(-c3ccccc3)sc2C(=O)O)c(C)c1    6.00
1  CC(C)N(c1cc(-c2ccccc2)sc1C(=O)O)C(=O)[C@H]1CC[C@H](C)CC1    5.82

====

Quick reference for IC50 among some compounds
biological target: Genome polyprotein (Hepatitis C virus genotype 1b (strain HC-J4) (HCV)); experiment: Inhibition of HCV genotype 1b J4 NS5B RNA dependent RNA polymerase
Sequence (O92972 2420-3010 limits assumed): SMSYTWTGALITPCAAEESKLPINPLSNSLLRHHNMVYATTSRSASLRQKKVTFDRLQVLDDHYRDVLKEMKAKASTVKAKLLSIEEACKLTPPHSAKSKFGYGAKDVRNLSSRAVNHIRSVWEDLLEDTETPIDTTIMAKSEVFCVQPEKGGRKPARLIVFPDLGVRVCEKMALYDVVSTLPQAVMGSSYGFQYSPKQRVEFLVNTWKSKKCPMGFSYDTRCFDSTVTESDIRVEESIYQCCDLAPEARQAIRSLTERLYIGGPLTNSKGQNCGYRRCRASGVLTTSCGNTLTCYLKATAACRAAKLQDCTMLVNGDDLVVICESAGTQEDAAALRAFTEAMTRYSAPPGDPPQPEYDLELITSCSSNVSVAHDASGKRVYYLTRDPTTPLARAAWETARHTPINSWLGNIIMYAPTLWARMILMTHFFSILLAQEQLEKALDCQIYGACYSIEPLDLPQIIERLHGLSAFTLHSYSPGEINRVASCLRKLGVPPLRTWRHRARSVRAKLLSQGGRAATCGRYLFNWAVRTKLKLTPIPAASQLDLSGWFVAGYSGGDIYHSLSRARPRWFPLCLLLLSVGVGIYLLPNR
endpoint-name: IC50

>>> df
                                   compound  endpoint_name   result
0  COP(=O)(Nc1cc(-c2ccc(-c3cc4ccccc4s3)cc2)sc1C(=O)O)c1ccc(C)cc1C (centres undefined)           IC50  16.3 nM
1  COP(=O)(c1ccc(C)cc1C)N(c1cc(-c2ccc(F)cc2)sc1C(=O)O)C(C)C (centres undefined)           IC50   517 nM
2  COP(=O)(Nc1cc(-c2ccc(Cl)cc2)sc1C(=O)O)c1ccc(C)cc1C (centres undefined)           IC50    21 nM
3  COP(=O)(Nc1cc(-c2ccc(Cl)cc2)sc1C(=O)O)c1ccc(Cl)cc1F (centres undefined)           IC50   298 nM
4  CCOP(=O)(Nc1cc(-c2ccc(Cl)cc2)sc1C(=O)O)c1ccc(Cl)cc1C (centres undefined)           IC50    81 nM
5  Cc1ccc(P(=O)(Nc2cc(-c3ccc(Cl)cc3)sc2C(=O)O)OCc2cc3ccccc3o2)c(C)c1 (centres undefined)           IC50   425 nM
6  COP(=O)(Nc1cc(-c2ccc(Cl)cc2)sc1C(=O)O)c1ccc(Cl)cc1C (centres undefined)           IC50    26 nM
7  Cc1ccc(P(=O)(Nc2cc(-c3ccc(Cl)cc3)sc2C(=O)O)OCCC(C)C)c(C)c1 (centres undefined)           IC50   298 nM
8  CCCCOP(=O)(Nc1cc(-c2ccc(Cl)cc2)sc1C(=O)O)c1ccc(C)cc1C (centres undefined)           IC50   170 nM

====

target: Genome polyprotein (Hepatitis C virus genotype 1b (strain HC-J4) (HCV)); assay: Inhibition of HCV genotype 1b J4 NS5B RNA dependent RNA polymerase
endpoint-name: IC50 (nM)

In [3]: df
Out[3]:
                                   compound                             target_system  endpoint_name  result
0  COP(=O)(Nc1cc(-c2ccc(-c3cc4ccccc4o3)cc2)sc1C(=O)O)c1ccc(C)cc1C (stereo not given)  Genome polyprotein (Hepatitis C virus genotype 1b (strain HC-J4) (HCV))           IC50     5.6
1  Cc1ccc(P(=O)(Nc2cc(-c3ccc(Cl)cc3)sc2C(=O)O)OCCc2ccc(F)cc2)c(C)c1 (stereo not given)  Genome polyprotein (Hepatitis C virus genotype 1b (strain HC-J4) (HCV))           IC50     314
2  CCOP(=O)(Nc1cc(-c2ccc(Cl)cc2)sc1C(=O)O)C1CCC(C)CC1 (stereo not given)  Genome polyprotein (Hepatitis C virus genotype 1b (strain HC-J4) (HCV))           IC50    3740
3  Cc1ccc(P(=O)(Nc2cc(-c3ccc(Cl)cc3)sc2C(=O)O)OC(C)C)c(C)c1 (stereo not given)  Genome polyprotein (Hepatitis C virus genotype 1b (strain HC-J4) (HCV))           IC50     189
4  COP(=O)(Nc1cc(-c2ccc(C#CC3CC3)cc2)sc1C(=O)O)c1ccc(C)cc1C (stereo not given)  Genome polyprotein (Hepatitis C virus genotype 1b (strain HC-J4) (HCV))           IC50    45.8
5  Cc1ccc(P(=O)(Nc2cc(-c3ccc(Cl)cc3)sc2C(=O)O)OCC(C)C)c(C)c1 (stereo not given)  Genome polyprotein (Hepatitis C virus genotype 1b (strain HC-J4) (HCV))           IC50     223
6  CCOP(=O)(Nc1cc(-c2ccc(Cl)cc2)sc1C(=O)O)C1CC=C(C)CC1 (stereo not given)  Genome polyprotein (Hepatitis C virus genotype 1b (strain HC-J4) (HCV))           IC50    1130
7  CC(C)N(c1cc(-c2ccccc2)sc1C(=O)O)C(=O)[C@H]1CC[C@H](C)CC1  Genome polyprotein (Hepatitis C virus genotype 1b (strain HC-J4) (HCV))           IC50      35
8  COCCOP(=O)(Nc1cc(-c2ccc(Cl)cc2)sc1C(=O)O)c1ccc(C)cc1C (stereo not given)  Genome polyprotein (Hepatitis C virus genotype 1b (strain HC-J4) (HCV))           IC50     135
9  COP(=O)(Nc1cc(-c2ccc(-c3cc4nc(C)cc(N)n4n3)cc2)sc1C(=O)O)c1ccc(C)cc1C (stereo not given)  Genome polyprotein (Hepatitis C virus genotype 1b (strain HC-J4) (HCV))           IC50     5.1
